Origin of measurements: ChEMBL document CHEMBL3988442

Target: Ubiquitin-activating enzyme e1, putative (Leishmania donovani (strain BPK282A1))
Test: Leishmania donovani Ubiquitin Activating Enzyme (LdE1)
Type: functional
Set-up: scale not given: direction of the effect not stated beside the values
Conditions: 30 µM
Potency and affinity values are given separately.
Criterion: Percent Effect strictly less than 10%. Met: MET. Not met: NOT MET.

>>> assignedclass("CC(Cn1cccn1)NC(=O)NCc1cccnc1OC1CCCC1 (configuration not stated)")
"MET"
>>> assignedclass("Cc1nccn1-c1cc(CNC(=O)c2ccccn2)ccn1")
"NOT MET"
>>> assignedclass("CN1CCN(Cc2cn3c(n2)CN(C(=O)N2CCOCC2)CC3)CC1")
"MET"
>>> assignedclass("CCc1nnc2n1CCN(Cc1nc(-c3ccoc3)no1)C2")
"MET"
>>> assignedclass("COCC(=O)N1CC[C@@H](N2CCOCC2)[C@@H]1Cc1ccccc1")
"NOT MET"
>>> assignedclass("Cc1nn(C)c2cn(C(C)C(=O)NCc3cccnc3)nc12 (configuration not stated)")
"NOT MET"
>>> assignedclass("CCc1nc(C2CCCN2C(=O)c2ccc3c(c2)nnn3CC)no1 (configuration not stated)")
"MET"
>>> assignedclass("CN(C)C(=O)CN1CCCCC1c1nc(N)ncc1-c1cccc(F)c1 (configuration not stated)")
"NOT MET"
>>> assignedclass("O=C(c1cc(COc2ccc3c(c2)OCO3)[nH]n1)N1CCOCC1")
"MET"
>>> assignedclass("Cc1cnc(Nc2nccnc2C2CCN(C)CC2)s1")
"NOT MET"
>>> assignedclass("CCn1nc(C)c2ccn(CC(=O)NC3CCCC3)c(=O)c21")
"MET"
>>> assignedclass("CCN1CCN(C2CCN(Cc3c(C)noc3C)CC2)C1=O")
"NOT MET"

---

Target: Ubiquitin-activating enzyme e1, putative (Leishmania donovani (strain BPK282A1))
Test: Leishmania donovani Ubiquitin Activating Enzyme (LdE1)
Assay type: functional
Set-up: scale not given: direction of the effect not stated beside the values
Details: 30 µM
Potency and affinity values are given separately.
measure: Percent Effect (%)

>>> measuredresult("Cn1ccc(CN2CCC(NC(=O)Cc3ccccc3)CC2)cc1=O")
5.13
>>> measuredresult("Cc1nn(C)c(C)c1C1CCCN1C(=O)c1ccc(Cl)o1 (configuration not stated)")
2.7
>>> measuredresult("CN(C)[C@@H]1CN(Cc2ccco2)C[C@@H]2CCCO[C@@H]21")
6.49
>>> measuredresult("Cn1nc(C2CCCN(Cc3cccc(F)c3)C2)c2nccnc21 (configuration not stated)")
9.46
>>> measuredresult("Cc1cccn2cc(CC(=O)N3CCCC(n4cncn4)C3)nc12 (configuration not stated)")
17.9
>>> measuredresult("O=S(=O)(c1cccs1)N1CCCn2cnc(CN3CCCC3)c2C1")
10.7
>>> measuredresult("CN1CC2(CCN(Cc3ccoc3)CC2)COc2ccccc2S1(=O)=O")
2.7
>>> measuredresult("Cc1cc(C)n(CC2CN(CC(=O)Nc3c(C)n[nH]c3C)CCO2)n1 (configuration not stated)")
15.6
>>> measuredresult("COc1ccccc1OCc1cc(C(=O)N2C[C@H](O)[C@@H](N(C)C)C2)n[nH]1")
6.94
>>> measuredresult("CCN1CCC(NC(=O)CN2CCc3c(ncn3C)C2)CC1")
6.33
>>> measuredresult("Cc1nc(CN2CCN(C(=O)COCc3ccccc3)CC2)no1")
5.41
>>> measuredresult("CNS(=O)(=O)c1ccc(C(=O)N2CCCC(n3cccn3)C2)cc1 (configuration not stated)")
13.2
>>> measuredresult("CCN1C(=O)CCCC12CCCN(C(=O)c1conc1C)C2 (configuration not stated)")
3.9
>>> measuredresult("Cc1ccc2c(n1)N(Cc1cccnc1)CCN(C(=O)C1CCC1)C2")
6.49
>>> measuredresult("Cc1oncc1C(=O)NCc1cc(=O)n2c(n1)CN(C)CCC2")
6.49
>>> measuredresult("COc1ncccc1CNC(=O)NCCNC(=O)c1ccco1")
13.3
>>> measuredresult("Cn1cc(-c2nnn3c2COC(CNCc2nccs2)C3)cn1 (configuration not stated)")
11.7
>>> measuredresult("CCN(C(=O)c1ccc(-n2ncc(C#N)c2N)cc1)C1CCCC1")
15.6
>>> measuredresult("CS(=O)(=O)N1CC[C@H]2C[C@@H](C(=O)N3CCOCC3)O[C@@H]2C1")
-8
>>> measuredresult("Cc1cc(C)n(-c2cc(N3CCN(C(=O)C(C)(C)C)CC3)nc(C)n2)n1")
5.33
>>> measuredresult("Cc1noc(C)c1-c1cnc(CC2CCN(C(=O)c3cc[nH]n3)C2)cn1 (configuration not stated)")
9.46
>>> measuredresult("O=C(Nc1nnc(C2CC2)s1)NC1CCN(Cc2ccccc2)C1 (configuration not stated)")
12.8
>>> measuredresult("COc1c(C2CCCN2C(=O)c2cccc(C(N)=O)c2)c(C)nn1C (configuration not stated)")
10.4
>>> measuredresult("COCCc1noc(CN2CCCC2Cn2cc(C)cn2)n1 (configuration not stated)")
8
>>> measuredresult("CCC(=O)N1CCC2(COCc3c(C)nc(N(C)C)nc32)C1 (configuration not stated)")
0
>>> measuredresult("CCCC(=O)N1CC[C@@H]2[C@H](CC1)N(Cc1cccnc1)CCS2(=O)=O")
5.41
>>> measuredresult("CC(=O)N(Cc1noc(C)n1)C1CCN(CCOc2ccccc2)C1 (configuration not stated)")
13
>>> measuredresult("CN(Cc1ncc[nH]1)S(=O)(=O)c1cccc(C(=O)N2CCOCC2)c1")
5.48
>>> measuredresult("N#CCCCS(=O)(=O)N1CCCC1CC(=O)c1cccs1 (configuration not stated)")
2.7
>>> measuredresult("CS(=O)(=O)Cc1cccc(C(=O)N2CCCC(n3cccn3)C2)c1 (configuration not stated)")
2.56
>>> measuredresult("COc1ccc(COCC(O)CNC(=O)c2cccnc2)cc1 (configuration not stated)")
3.8
>>> measuredresult("CN(C)C(=O)N1CCN(C(=O)C(c2ccccc2F)N(C)C)CC1 (configuration not stated)")
9.72
>>> measuredresult("COCCNC(=O)c1cc(S(=O)(=O)N2CCCCC2)cs1")
0
>>> measuredresult("O=C(Cc1cccs1)N1CC[C@H]2[C@@H]1CCC(=O)N2c1cccnc1")
29.9
>>> measuredresult("Cc1nccn1CCC1CCCCN1Cc1ccc(N(C)C)nc1 (configuration not stated)")
5.33
>>> measuredresult("Cc1cc(C)n(CC2CCCN2CC(=O)N(C)Cc2cnn(C)c2)n1 (configuration not stated)")
8.11
>>> measuredresult("COCC(=O)N1CCC(c2cccc(Cc3ccc(F)cc3)n2)CC1")
9.46
>>> measuredresult("CC(C)c1n[nH]c(C2CN(C(=O)CCCn3cccn3)CCO2)n1 (configuration not stated)")
-6.94
>>> measuredresult("CO[C@@H]1CC[C@@H](N(C)C(=O)COc2ccc(F)cc2)[C@H]1O")
9.33
>>> measuredresult("CCn1cc(NC(=O)NCC(O)CN2CCc3ccccc3C2)cn1 (configuration not stated)")
23.4
>>> measuredresult("Cc1noc(C)c1CN1CCN(CC2CC2)c2ncccc2C1")
5.33
>>> measuredresult("CC(NC(=O)Nc1cccnc1N1CCCC1)c1nncn1C (configuration not stated)")
5.41
>>> measuredresult("CNC(=O)CN1CCCC12CCN(C(=O)c1ccsc1)CC2")
27.3
>>> measuredresult("O=C(c1ccc[nH]1)N1CCCC(c2cc(C(F)(F)F)[nH]n2)C1 (configuration not stated)")
-10.5
>>> measuredresult("COc1c(C2CCCN2C(=O)c2cc(Cl)c[nH]2)c(C)nn1C (configuration not stated)")
5.41
>>> measuredresult("Cc1cc(CN2CCCC2Cn2cncn2)no1 (configuration not stated)")
17.9
>>> measuredresult("CS(=O)(=O)CCNC(=O)C1(c2cccc(Cl)c2)CCCCC1")
-1.39

---

Species on record: Homo sapiens
Test: To identify inhibition of the IFN signalling (Jak-Stat) pathway via expression of an eGFP reporter gene under the control of an IFN-stimulated response element (ISRE) containing MxA promoter.
Type: functional
Design: scale not given: direction of the effect not stated beside the values
Conditions: 30 µM
Collected Percent Effect values appear next to each entry.
measure: Percent Effect (%)

>>> measuredresult("CCc1nc(C2CCCN(C(=O)CN(C)S(C)(=O)=O)C2)no1 (stereo unspecified)")
0.959
>>> measuredresult("CCc1nc(CN(Cc2cccs2)CC2CCCO2)no1 (stereo unspecified)")
10.4
>>> measuredresult("CN(C)c1ccc(C(=O)NCC2(O)CCOCC2)cc1")
-3.96
>>> measuredresult("O=C1COc2c(cccc2C(=O)N2CCCCC2Cn2cccn2)N1 (stereo unspecified)")
10.8
>>> measuredresult("Cc1noc(C2CCN(C(=O)CN(C)c3ccc(Cl)cn3)CC2)n1")
3.6
>>> measuredresult("Cc1cnc(N2CC3(CCN(C(=O)c4ccoc4)C3)C2)nc1")
1.13

---

Biological target: Ubiquitin-activating enzyme e1, putative (Leishmania donovani (strain BPK282A1)) (UniProt E9BSI1)
Sequence (whole entry): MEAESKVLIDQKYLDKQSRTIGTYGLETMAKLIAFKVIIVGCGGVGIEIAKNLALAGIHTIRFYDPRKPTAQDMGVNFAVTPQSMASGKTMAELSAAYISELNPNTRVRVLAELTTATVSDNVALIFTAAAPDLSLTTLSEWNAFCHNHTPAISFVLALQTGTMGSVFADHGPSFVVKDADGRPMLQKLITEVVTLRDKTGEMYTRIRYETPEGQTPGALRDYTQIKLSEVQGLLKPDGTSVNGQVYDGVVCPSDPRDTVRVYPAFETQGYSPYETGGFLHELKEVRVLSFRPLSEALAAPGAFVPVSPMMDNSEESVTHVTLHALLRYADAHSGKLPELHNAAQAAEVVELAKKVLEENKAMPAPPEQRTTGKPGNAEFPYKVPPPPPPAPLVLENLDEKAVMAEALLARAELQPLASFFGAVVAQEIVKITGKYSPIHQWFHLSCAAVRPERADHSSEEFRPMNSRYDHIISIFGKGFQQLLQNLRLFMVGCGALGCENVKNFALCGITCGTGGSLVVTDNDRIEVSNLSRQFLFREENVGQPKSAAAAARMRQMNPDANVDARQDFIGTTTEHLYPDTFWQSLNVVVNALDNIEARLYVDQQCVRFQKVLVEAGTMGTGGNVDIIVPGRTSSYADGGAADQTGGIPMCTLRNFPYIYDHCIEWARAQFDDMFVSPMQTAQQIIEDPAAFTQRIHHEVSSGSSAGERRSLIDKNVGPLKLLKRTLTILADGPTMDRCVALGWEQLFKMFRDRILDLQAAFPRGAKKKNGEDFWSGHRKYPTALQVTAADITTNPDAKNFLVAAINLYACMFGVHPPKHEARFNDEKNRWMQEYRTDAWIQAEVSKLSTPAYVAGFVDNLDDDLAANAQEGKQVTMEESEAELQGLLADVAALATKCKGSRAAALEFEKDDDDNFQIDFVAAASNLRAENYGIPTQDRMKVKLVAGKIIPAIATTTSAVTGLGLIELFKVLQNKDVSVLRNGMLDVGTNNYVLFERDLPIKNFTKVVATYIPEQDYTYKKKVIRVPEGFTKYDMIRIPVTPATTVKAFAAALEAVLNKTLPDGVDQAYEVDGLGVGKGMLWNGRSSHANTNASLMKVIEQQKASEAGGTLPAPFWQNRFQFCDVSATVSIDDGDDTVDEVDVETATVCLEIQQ
Assay: Leishmania donovani Ubiquitin Activating Enzyme (LdE1)
Assay type: functional
Set-up: scale not given: direction of the effect not stated beside the values
Conditions: 30 µM
Measured potencies and affinities stand elsewhere.
measure: Percent Effect (%)

>>> measuredresult("CN(C)c1cc(CNC(=O)Nc2ccc(F)cc2)ccn1")
17.9
>>> measuredresult("Cc1cc(C)n(CC2CCCCN2C(=O)c2ccc3nncn3c2)n1 (stereo unspecified)")
8
>>> measuredresult("Fc1ccccc1CN1C[C@@H](OCc2ccncc2)[C@H]2OCCC[C@H]21")
10.4
>>> measuredresult("COc1ccccc1[C@@H]1CN(C(=O)c2csc(C)n2)C[C@H]1C(=O)O")
1.39
>>> measuredresult("CCc1nc(C2CCCN2C(=O)CCc2cccs2)no1 (stereo unspecified)")
-2.7
>>> measuredresult("COC(=O)c1cccc(NC(=O)CN2CCN(S(C)(=O)=O)CC2)c1")
16.2
